# assayName: Inhibition of human telomerase expressed in HEK293T cells treated after telomerase elongation by telomeric repeat amplification protocol assay
pIC50: −log10 of the molar value.

- givenSmiles: "CN(C)c1ccc(Nc2c3ccc(NC(=O)CCN4CCCC4)cc3nc3cc(NC(=O)CCN4CCCC4)ccc23)cc1"
  pIC50: 7.19

Sourced from BindingDB's records for doi:10.1073/pnas.0707365104
